Ki: recorded values
Molecular target: recombinant human tissue transglutaminase (Homo sapiens, UniProt P21980)
Sequence (P21980 whole entry): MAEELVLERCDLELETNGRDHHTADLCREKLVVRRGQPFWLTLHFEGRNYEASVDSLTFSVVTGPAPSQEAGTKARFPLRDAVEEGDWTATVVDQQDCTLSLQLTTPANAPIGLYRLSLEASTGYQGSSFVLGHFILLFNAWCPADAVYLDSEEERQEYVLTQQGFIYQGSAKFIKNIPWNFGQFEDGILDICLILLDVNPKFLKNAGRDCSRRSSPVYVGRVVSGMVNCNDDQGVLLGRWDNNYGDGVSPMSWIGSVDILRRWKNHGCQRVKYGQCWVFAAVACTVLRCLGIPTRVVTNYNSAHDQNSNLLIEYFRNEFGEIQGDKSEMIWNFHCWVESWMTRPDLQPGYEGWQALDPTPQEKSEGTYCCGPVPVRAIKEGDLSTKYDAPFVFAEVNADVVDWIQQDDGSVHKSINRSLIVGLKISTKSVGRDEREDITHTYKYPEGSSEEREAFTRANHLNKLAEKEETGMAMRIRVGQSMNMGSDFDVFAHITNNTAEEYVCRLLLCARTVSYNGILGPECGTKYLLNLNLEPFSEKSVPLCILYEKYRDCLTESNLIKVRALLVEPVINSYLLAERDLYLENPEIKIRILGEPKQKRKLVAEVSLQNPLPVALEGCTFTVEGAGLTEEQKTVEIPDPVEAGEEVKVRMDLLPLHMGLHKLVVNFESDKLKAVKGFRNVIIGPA
Assay: Inhibition of tissue transglutaminase (residual tTG activity, glutamate dehydrogenase coupled assay)
Format: biochemical
Design: made in house
Conditions: Table 3, sulfonamides and sulfonyl hydrazides, competitive inhibition constant; read-out: inhibition constant

[
  {
    "smiles-record": "CCOC(=O)[C@H](CCS(=O)(=O)NNc1ccccc1)NC(=O)OCc1ccccc1",
    "endpoint-unit": "µM",
    "Ki": 130
  },
  {
    "smiles-record": "CCOC(=O)[C@H](CCS(N)(=O)=O)NC(=O)OCc1ccccc1",
    "endpoint-unit": "µM",
    "Ki": 4400
  },
  {
    "smiles-record": "CCOC(=O)[C@H](CCS(=O)(=O)NN)NC(=O)OCc1ccccc1",
    "endpoint-unit": "µM",
    "Ki": 2200
  }
]

----------
Target: recombinant human tissue transglutaminase (Homo sapiens, UniProt P21980)
Experiment: Inhibition of tissue transglutaminase (residual tTG activity, glutamate dehydrogenase coupled assay)
Format: biochemical
Design: made in house
Details: X = acivicin; 200 mM MOPS pH 7.1, 30° C.; read-out: KI (reactive motif Aci)
pKi: −log10 of the molar value.

[
  {
    "molecule": "N[C@H](C(=O)O)[C@@H]1CC(Cl)=NO1 [H—X—OH, X=Aci, acivicin, reference compound]",
    "pKi": 1.06
  }
]

----------
Biological target: recombinant human tissue transglutaminase (Homo sapiens)
Test: Inhibition of tissue transglutaminase (residual tTG activity, glutamate dehydrogenase coupled assay)
Assay type: biochemical
Set-up: made in house
Settings: X = 6-diazo-5-oxo-norleucine; read-out: KI (reactive motif DON)

[
  {
    "compound": "COC(=O)C(CCC(=O)C=[N+]=[N-])NC(=O)OCc1ccccc1 (stereo not shown)",
    "target": "recombinant human tissue transglutaminase (Homo sapiens)",
    "endpoint-unit": "µM",
    "Ki": 135
  }
]

----------
Biological target: recombinant human tissue transglutaminase (Homo sapiens, UniProt P21980)
Assay: Inhibition of tissue transglutaminase (residual tTG activity, glutamate dehydrogenase coupled assay)
Type: biochemical
Design: made in house
Details: Table 2, Sab derivatives, reversible competitive inhibition; read-out: KI

[
  {
    "compound": "NS(=O)(=O)CCC(NC(=O)OCc1ccccc1)C(=O)NCC(=O)O (stereo not shown) [Z-Sab-Gly]",
    "Ki (mM)": 8
  }
]
